Where these numbers come from: ChEMBL document CHEMBL1641602

In this section, each of the compounds is paired with its reported GI50.
Assay: Cytotoxicity against human HuH7 cells
Format: cell-based, Huh-7
Details: HuH7 cells, read-out: GI50

givenSmiles | GI50
COc1cc2c(=O)c(C(=O)c3ccc(C)cc3)cn(Cc3ccc(S(N)(=O)=O)cc3)c2cc1OC | > 25 µM
COc1cc2c(=O)c(C(=O)c3ccc(C)cc3)cn(Cc3ccc(C(F)(F)F)cc3F)c2cc1OC | > 25 µM
O=C(OCc1ccc(Cl)cc1)c1cn(Cc2ccc(Cl)cc2)c2cc(N3CCOCC3)c(F)cc2c1=O | > 12 µM
COc1cc2c(=O)c(C(=O)c3ccc(C)cc3)cn(Cc3ccc(C(C)(C)C)cc3)c2cc1OC | > 25 µM
COc1cc2c(=O)c(C(=O)c3ccc(C)cc3)cn(Cc3ccc(S(C)(=O)=O)cc3)c2cc1OC | > 50 µM
CCOC(=O)c1cn(Cc2ccc(Cl)cc2)c2cc(OC)c(OC)cc2c1=O | > 15 µM
